# Tested on: Zymoseptoria tritici
# experiment: Leaf blotch of wheat (SEPTTR) disease control on wheat seedlings
# Format: in vivo
# conditions: Low volume application at 125.1 g/H; 1 Day Protectant; wheat leaf blotch
assay-endpoint: SEPTTR 1DP disease control rating, LV activity

The molecule listed as "CC[C@H](OC)[C@@H](Oc1ccccc1)[C@H](C)OC(=O)[C@H](C)NC(=O)c1nccc(OC)c1O" shows SEPTTR 1DP disease control rating, LV activity equal to B (≤ 80)

The molecule listed as C=CC(OCCC)C(Oc1ccccc1)C(C)OC(=O)C(C)NC(=O)c1nccc(OC)c1OC(C)=O (centres unmarked) shows SEPTTR 1DP disease control rating, LV activity equal to A (> 80)

The molecule listed as C=CC(OCCC)C(Oc1ccccc1)C(C)OC(=O)C(C)NC(=O)c1nccc(OC)c1OCOC(C)=O (centres unmarked) shows SEPTTR 1DP disease control rating, LV activity equal to A (> 80)

The molecule listed as CCCOC(CC)C(Oc1ccccc1)C(C)OC(=O)C(C)NC(=O)c1nccc(OC)c1OC(C)=O (centres unmarked) shows SEPTTR 1DP disease control rating, LV activity equal to B (≤ 80)

Next:
The molecule listed as CCCOC(CC)C(Oc1ccccc1)C(C)OC(=O)C(C)NC(=O)c1nccc(OC)c1OCOC(C)=O (centres unmarked) shows SEPTTR 1DP disease control rating, LV activity equal to A (> 80)

src = patent US20180000085A1
